Measurement notes: log P determination by HPLC on reversed-phase column (C 18), EEC Directive 79/831 Annex V.A8
Format: physicochemical
Test context: reversed-phase HPLC column (C 18), stated in preparation examples
Quantity kind: chromatographic logP
// response body must contain only the number

Input Fc1cccc2cc(Oc3ccccc3CBr)cnc12 . Output chromatographic logP: 3.65

Quick note, chromatographic logP for C[Si](C)(O)Cc1c(Cl)cccc1Oc1cnc2ccccc2c1 landed at 3.48

Entry under test: Cc1nc2ccccc2cc1Oc1ccccc1C[Si](C)(C)C . Its chromatographic logP was 5.05

Form: compound = C[Si](C)(Cc1ccccc1Oc1cnc2c(F)cccc2c1)c1cccs1 ; chromatographic logP = 5.6

Entry under test: Cc1nc2c(F)cccc2cc1Oc1ccccc1C[Si](C)(C)C . Its chromatographic logP was 5.85

====

Measurement notes: log P determination by HPLC on reversed-phase column (C 18), EEC Directive 79/831 Annex V.A8
Type: physicochemical
Test context: Table 1; HPLC, 40° C., 0.1% aqueous formic acid and acetonitrile
Quantity kind: logP
A bare number is all that is needed in reply.

Reported logP for Cc1nc2c(F)c(F)ccc2nc1Oc1ccccc1C[Si](C)(C)C was 5.81

Value of logP reported for the compound Cc1nc2ccccc2cc1Oc1cccc(F)c1C[Si](C)(C)C is 5.38

Documented logP of Cc1cccc2cc(Nc3ccc(F)cc3C[Si](C)(C)C)cnc12 : 4.56

The reported logP of the compound C[Si](C)(C)Cc1cc(F)ccc1Nc1cnc2ccccc2c1 was 3.69

Per the records, this compound ( Cc1nc2c(F)c(F)ccc2cc1Nc1ccccc1C[Si](C)(C)C ) has logP equal to 5.32

# compound COc1ccccc1[Si](C)(C)Cc1c(F)cccc1Oc1cnc2ccccc2c1 ; its logP = 6.01

For record C[Si](C)(C)Cc1ccccc1Oc1cnc2c(F)cccc2c1 the listed logP is 5.45

Sample C[Si](C)(C)Cc1cc(Cl)ccc1Nc1cnc2ccccc2c1 ; logP observed: 4.39

// field: logP; key: C[Si](C)(Cc1c(F)cccc1Oc1cnc2ccccc2c1)c1cccs1 ; value = 5.65

Sample C[Si](C)(C)Cc1ccc(Nc2cnc3ccccc3c2)c(C[Si](C)(C)C)c1 ; logP observed: 5.85

The compound Cc1cccc2cc(Nc3ccc(Cl)cc3C[Si](C)(C)c3ccccc3)cnc12 showed logP equal to 5.68

Lab book: logP of COc1ccc([Si](C)(C)Cc2ccccc2Oc2cnc3c(F)cccc3c2)cc1 noted as 5.62

// sample C[Si](C)(C)Cc1c(F)cccc1Oc1cnc2c(C(F)(F)F)cccc2c1 , its logP was 6.32

Please fill in: logP reported for C[Si](C)(O)Cc1ccccc1Cc1cnc2ccccc2c1 = 2.13

====

Assignment: determine reported chromatographic logP for the given molecules.
Measurement notes: log P determination by HPLC on reversed-phase column (C 18), EEC Directive 79/831 Annex V.A8
Format: physicochemical
Test context: reversed-phase HPLC column (C 18), Table 1; HPLC, 40° C., 0.1% aqueous formic acid and acetonitrile

Field chromatographic logP (entry Cc1nc2ccccc2cc1Oc1ccccc1C[Si](C)(C)C ) reads 5.05

Sure, the documented chromatographic logP for C[Si](C)(Cc1ccccc1Oc1cnc2c(F)cccc2c1)c1cccs1 is 5.6

For this molecule ( Cc1nc2c(F)cccc2cc1Oc1ccccc1C[Si](C)(C)C ), measured chromatographic logP is 5.85

chromatographic logP reported for this molecule C[Si](C)(O)Cc1c(Cl)cccc1Oc1cnc2ccccc2c1 : 3.48
